The reported numbers originate from patent US11459586B2.

System: human iPSC
Type: cell-based
Conditions: viable cells two days after nucleofection, sgRNA plasmid or pUC19 control
Protocol: FIGS. 10A-F. Effect of Caspase and p38 MAPK inhibitors on survival and gene targeting of human iPSC. FIG. 10A and FIG. 10B. Mouse Thy1 gene targeting scheme. […] Two days after nucleofection, viable cells were counted. […] Five days after transfection, cells were analyzed by flow cytometry for mThy1 and hThy1 expression. […] Ten days after sorting, the number of surviving iPSC colonies was counted (from 190 cells sorted). […]
Peptide text beside a SMILES is read from it. * marks the point of attachment. Cbz = O=C(OCc1ccccc1)*; CH2F = FC*
Value type: rescue of hiPSC from cell death (anoikis) after nucleofection

Compound	Measured result
COC(=O)CC[C@H](NC(=O)[C@H](C)NC(=O)OCc1ccccc1)C(=O)N[C@H](C(=O)N[C@@H](CC(=O)OC)C(=O)CF)C(C)C [zAEVD-fmk] (Cbz-AE(OMe)VD(OMe)-CH2F)	prevented anoikis
COC(=O)CC[C@H](NC(=O)[C@H](CC(=O)OC)NC(=O)OCc1ccccc1)C(=O)N[C@H](C(=O)N[C@@H](CC(=O)OC)C(=O)CF)C(C)C	prevented anoikis
